methodSummary: M. tuberculosis growth inhibition, HTS (AID 1259417);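 note: bacteria grown with compound for 5 days at 37 °C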
conditionDescription: M. tuberculosis growth inhibition; stronger effect = higher value; concentration not given here
Screen size: about 1,100 compounds; about 760 (69%) were called active. So high a share suggests a set chosen from earlier hits. This is one part of the list.
parameterMeasured: inhibition

Below are worked cases with known answers.
Name the recorded inhibition of the compound listed here: CC1=NN(C(=S)Cc2ccccc2)C(C)(O)C1 (stereo unspecified)
14.6%

Name the recorded inhibition of the compound listed here: c1ccc(CCN(Cc2ccccc2)C2CCN(Cc3c[nH]c4ccccc34)CC2)cc1
-21.5%

Name the recorded inhibition of the compound listed here: CC1=NN(C(=O)c2cccc(Cl)c2)C(O)(c2ccc(Cl)cc2)C1 (stereo unspecified)
42.4%

Name the recorded inhibition of the compound listed here: C=CCn1c(O)c(C2=c3ccccc3=NC2=O)sc1=N
14.7%

---
Name the recorded inhibition of the compound listed here: CC(C)(C)c1ccc(C(=O)N2N=C(c3ccccc3)CC2(O)C(F)(F)F)cc1 (stereo unspecified)
-7.59%

Name the recorded inhibition of the compound listed here: O=C(c1cccc(Cl)c1)N1N=C(c2ccc(Cl)cc2)CC1(O)C(F)(F)F (stereo unspecified)
23.1%

Name the recorded inhibition of the compound listed here: CCc1ccc(OCC(=O)NNC(=O)c2cnccn2)c(Br)c1
95.4%

Name the recorded inhibition of the compound listed here: CC(C)(C)c1ccc(C(=O)Nc2cccc(NC(=O)c3cccs3)c2)cc1
22.7%

Name the recorded inhibition of the compound listed here: CC(=O)c1ccc(NC(=O)Nc2cc(OCC(F)(F)F)cc(OCC(F)(F)C(F)F)c2)cc1
22.7%

Name the recorded inhibition of the compound listed here: C1=CC2CC1CC2CN1CCC(N(CCc2ccccc2)Cc2ccccc2)CC1 (stereo unspecified)
96.9%

Name the recorded inhibition of the compound listed here: Cc1ccc(-c2ccc(C=CC(=O)c3ccco3)o2)cc1
20.8%

----------
methodSummary: M. tuberculosis growth inhibition, HTS (AID 1259417);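 note: bacteria grown with compound for 5 days at 37 °C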
conditionDescription: M. tuberculosis DsRed fluorescence growth inhibition; stronger effect = higher value; concentration not given here
Screen size: about 1,100 compounds; about 760 (69%) were called active. The set was probably picked from earlier hits. The list shows a part of the results.
Entries annotated with measured inhibition
Report the value in % with no unit label.

Below are worked cases with known answers.
Name the recorded inhibition of the molecule listed here: O=C(Nc1nnc(-c2ccccc2Cl)o1)c1ccco1
-3.23

Name the recorded inhibition of the molecule listed here: O=C(Nc1nnc(-c2ccco2)o1)c1cccs1
17.8

Name the recorded inhibition of the molecule listed here: Cc1cc(Nc2cccc(Cl)c2)nc(NCc2ccccc2)n1
96.8

---
Name the recorded inhibition of the molecule listed here: Cc1ccc2c(C)nc(Nc3nc(CSc4nc5ccccc5s4)cc(=O)[nH]3)nc2c1
-4.65

Name the recorded inhibition of the molecule listed here: COc1cccc(-c2nnc(NC(=O)c3cccc(F)c3)o2)c1
89.3

Name the recorded inhibition of the molecule listed here: Cc1ccccc1C(=O)Nc1nnc(-c2ccco2)o1
47.6

Name the recorded inhibition of the molecule listed here: Cc1cc(C)c2[nH]c3ccccc3c2n1
100

Name the recorded inhibition of the molecule listed here: O=C(Nc1nnc(-c2cccs2)o1)c1ccco1
-2.8

Name the recorded inhibition of the molecule listed here: Cc1ccc2nsnc2c1S(=O)(=O)Nc1cccc2cccnc12
100

----------
Entries annotated with measured inhibition
methodSummary: M. tuberculosis growth inhibition, HTS (AID 1259417);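 note: bacteria grown with compound for 5 days at 37 °C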
conditionDescription: M. tuberculosis growth inhibition; stronger effect = higher value; concentration not given here
Screen size: about 1,100 compounds; about 760 (69%) were called active. So high a share suggests a set chosen from earlier hits. The list shows a part of the results.
Report the value in % with no unit label.

Name the recorded inhibition of the compound listed here: Cc1ccc(NCc2nnc(SCC(=O)OC3CCCCC3)o2)c(C)c1
95

---
Name the recorded inhibition of the compound listed here: Cc1nnc(NC(=O)c2ccc3ccccc3c2)o1
99.1

Name the recorded inhibition of the compound listed here: Cc1ccc(-c2[nH]c3ccccc3c2SCCNC(=O)c2cc3ccccc3oc2=O)cc1
-17.6
